# Tested on: adhesion of intestinal epithelial cells (HT-29) and monocytic cells (U937) induced by IL-6
# testDescription: Inhibition of IL-6-induced adhesion of monocytes and intestinal epithelial cells
# Format: cell-based, human
# particulars: Homo sapiens, 3 h; test drug 1 μM; IL-6 10 ng/mL; HT-29/U937; read-out: inhibitory activity (%)
readoutName: inhibition at 1 µM (%)
Express it in %; write the number only.

Looking for the measured inhibition at 1 µM of Cc1nc(NC(=O)c2oc3ccccc3c2C)c(C)c(C)c1O , can you help?
18.7

Could you tell me which inhibition at 1 µM is on file for Cc1nc(NC(=O)c2sc3cc(F)ccc3c2Cl)c(C)c(C)c1OC(=O)c1ccc(F)nc1 ?
15.2

Query (compound): Cc1nc(NC(=O)c2sc3cc(F)ccc3c2Cl)c(C)c(C)c1OC(=O)c1ccc(Cl)cn1 ; field requested: inhibition at 1 µM
26.8

inhibition at 1 µM lookup needed for Cc1nc(NC(=O)c2sc3cc(F)ccc3c2Cl)c(C)c(C)c1OC(=O)c1ccccc1 , thanks.
6.8

What measured inhibition at 1 µM goes with Cc1nc(NC(=O)c2sc3cc(F)ccc3c2Cl)c(C)c(C)c1OCC(=O)Nc1ccccc1 ?
72.8

For Cc1nc(NC(=O)c2sc3cc(F)ccc3c2Cl)c(C)c(C)c1OCC(=O)NC1CCCCC1 , what is its reported inhibition at 1 µM?
14.5

Need inhibition at 1 µM of Cc1nc(NC(=O)c2cc3cccc(Br)c3[nH]2)c(C)c(C)c1O , thanks.
5

For the compound shown here, Cc1nc(NC(=O)c2sc3cc(F)ccc3c2Cl)c(C)c(C)c1OC(=O)C12CC3CC(CC(C3)C1)C2 , give the reported inhibition at 1 µM.
20.3
